molecular target: Pseudomonas aeruginosa LpxC enzyme (Pseudomonas aeruginosa (strain ATCC 15692 / DSM 22644 / CIP 104116 / JCM 14847 / LMG 12228 / 1C / PRS 101 / PAO1)); assay: biochemical; assay type: biochemical; settings: class symbols A/B/C by IC50; Table 3; read-out: Enzyme inhibitory activity (inhibitory activity on Pseudomonas aeruginosa LpxC enzyme)
pIC50: −log10 of the molar value.
value-type: pIC50

INSERT INTO results (molecule, val) VALUES
  ('CCOC1CN(Cc2ccc(C#Cc3ccc(C(=O)N(C)C(C(=O)NC)C(=O)NO)cc3)c(F)c2)C1 (stereo not shown)', '> 8.00'),
  ('CNC(=O)[C@@](C)(C(=O)NO)N(C)C(=O)c1ccc(C#C/C=C/CCCOC)cc1', '> 8.00'),
  ('CCn1cc(C#Cc2ccc(C(=O)N(C)C(C(=O)NC)C(=O)NO)cc2)cn1 (stereo not shown)', '7.00 to 8.00');

For each of the items listed, what is its pIC50?
1. CN(C(=O)c1ccc(C#Cc2ccc(CN3CCCOCC3)cc2)cc1)C(C)(C(=O)NO)C(=O)NCc1ccccn1 (stereo not shown)
2. CNC(=O)[C@@](C)(C(=O)NO)N(C)C(=O)c1ccc(C#Cc2csc(C)n2)cc1

Given back:
> 8.00
7.00 to 8.00

Would you mind giving pIC50 for every molecule in the list below?
1. CNC(=O)[C@@](C)(C(=O)NO)N(C)C(=O)c1ccc(C#C/C=C/C2CC2COC)cc1 (stereo partly shown)
2. CNC(=O)[C@@](C)(C(=O)NO)N(C)C(=O)c1ccc(C#Cc2cc(C)on2)cc1
3. CCOC1CN(Cc2ccc(C#Cc3ccc(C(=O)N(C)C(C(=O)NC)C(=O)NO)cc3)c(F)c2F)C1 (stereo not shown)
4. CNC(=O)C(C(=O)NO)N(C)C(=O)c1ccc(C#Cc2ccc(CN3CC(C)(C)C3)cc2)cc1 (stereo not shown)
5. CCOC1CN(Cc2ccc(C#Cc3ccc(C(=O)N(C)C(C(=O)NC)C(=O)NO)cc3)cc2OC)C1 (stereo not shown)

Given back:
> 8.00
> 8.00
> 8.00
7.00 to 8.00
7.00 to 8.00

---

tested on: Pseudomonas aeruginosa strain TS88 (clinical isolate); assay: Antimicrobial activity, MIC by broth microdilution; type: cell-based; conditions: Table 1, 35° C., 18 hours, read-out: MIC Pseudomonas aeruginosa TS88 strain
value-type: MIC (µg/mL)
Answers are plain numbers, in µg/mL.

// below: answered molecules
INSERT INTO results (molecule, value_type, val) VALUES
  ('CNC(=O)C(C(=O)NO)N(C)C(=O)c1ccc(-c2ccc3c(c2)CCN3C)cc1 (stereo not shown)', 'MIC', 1),
  ('Cc1cc(CNC(=O)C(C(=O)NO)N(C)C(=O)c2ccc(-c3ccccc3)cc2)no1 (stereo not shown)', 'MIC', 2),
  ('CNC(=O)C(C(=O)NO)N(C)C(=O)c1ccc(-c2ccc(COC)cc2)cc1 (stereo not shown)', 'MIC', 1);

For each of the molecules below, note its MIC.
1. CNC(=O)C(C(=O)NO)N(C)C(=O)c1ccc(-c2ccc(N(C)C)cc2)cc1 (stereo not shown)
2. CNC(=O)C(C(=O)NO)N(C)C(=O)c1ccc(-c2ccc(OC(F)(F)F)cc2)cc1 (stereo not shown)
3. CNC(=O)C(C(=O)NO)N(C)C(=O)c1ccc(-c2ccc3c(c2)CCO3)cc1 (stereo not shown)
4. CNC(=O)C(C(=O)NO)N(C)C(=O)c1ccc(-c2ccc(OCCCN3CCOCC3)cc2)cc1.Cc1ccc(S(=O)(=O)O)cc1 (stereo not shown)

Given back:
1. 1
2. 1
3. 0.5
4. 2

Taken from patent US9073821B2.
